Experiment: Acute toxicity in mice
Assay type: in vivo
Conditions: in vivo, po; mouse, esophageal tube, 1% methyl cellulose; deaths within 14 days; LITCHFIELD and WILCOXON
Protocol: were tested with regard to analgesic activity in the rat, analgesic activity in the mouse, and acute toxicity in the mouse: 3. Acute Toxicity in Mice The acute toxicity was determined in Chbb:NMRI (SPF)-mice of both sexes, having an average body weight of 20 grams. The test compounds were administered as a trituration in 1% methyl cellulose (0.2 ml/10 gm of animal) by means of an esophageal tube. […]

compound	operatorSymbol	LD50 at 336 h (mg/kg)
Cc1nn(C)c2c1N(C)c1ncccc1N(C)C2=O [D]	=	225
Cc1nn(C)c2c1Nc1ncccc1N(C)C2=O [B]	=	175
CCCCN1C(=O)c2c(c(C)nn2C)Nc2ncccc21 [F]	>	1000
CCN1C(=O)c2c(c(C)nn2C)Nc2ncccc21 [C]	=	171
Cc1nn(C)c2c1Nc1ncccc1NC2=O [A]	=	152
CCN1C(=O)c2c(c(C)nn2C)N(C)c2ncccc21 [E]	=	202
